pIC50 listing for selected compounds.
target: xanthine oxidase (from buttermilk) (Bos taurus, UniProt P80457); construct: xanthine oxidase (from buttermilk; biozyme laboratories); purchased biozyme laboratories; host or cells: buttermilk (natural source); assay: Xanthine oxidase inhibitory effect; assay type: biochemical; details: 100 μmol/L xanthine, 5 mU/mL enzyme; read-out: X.O. inhibition IC50
Sequence (P80457 whole entry): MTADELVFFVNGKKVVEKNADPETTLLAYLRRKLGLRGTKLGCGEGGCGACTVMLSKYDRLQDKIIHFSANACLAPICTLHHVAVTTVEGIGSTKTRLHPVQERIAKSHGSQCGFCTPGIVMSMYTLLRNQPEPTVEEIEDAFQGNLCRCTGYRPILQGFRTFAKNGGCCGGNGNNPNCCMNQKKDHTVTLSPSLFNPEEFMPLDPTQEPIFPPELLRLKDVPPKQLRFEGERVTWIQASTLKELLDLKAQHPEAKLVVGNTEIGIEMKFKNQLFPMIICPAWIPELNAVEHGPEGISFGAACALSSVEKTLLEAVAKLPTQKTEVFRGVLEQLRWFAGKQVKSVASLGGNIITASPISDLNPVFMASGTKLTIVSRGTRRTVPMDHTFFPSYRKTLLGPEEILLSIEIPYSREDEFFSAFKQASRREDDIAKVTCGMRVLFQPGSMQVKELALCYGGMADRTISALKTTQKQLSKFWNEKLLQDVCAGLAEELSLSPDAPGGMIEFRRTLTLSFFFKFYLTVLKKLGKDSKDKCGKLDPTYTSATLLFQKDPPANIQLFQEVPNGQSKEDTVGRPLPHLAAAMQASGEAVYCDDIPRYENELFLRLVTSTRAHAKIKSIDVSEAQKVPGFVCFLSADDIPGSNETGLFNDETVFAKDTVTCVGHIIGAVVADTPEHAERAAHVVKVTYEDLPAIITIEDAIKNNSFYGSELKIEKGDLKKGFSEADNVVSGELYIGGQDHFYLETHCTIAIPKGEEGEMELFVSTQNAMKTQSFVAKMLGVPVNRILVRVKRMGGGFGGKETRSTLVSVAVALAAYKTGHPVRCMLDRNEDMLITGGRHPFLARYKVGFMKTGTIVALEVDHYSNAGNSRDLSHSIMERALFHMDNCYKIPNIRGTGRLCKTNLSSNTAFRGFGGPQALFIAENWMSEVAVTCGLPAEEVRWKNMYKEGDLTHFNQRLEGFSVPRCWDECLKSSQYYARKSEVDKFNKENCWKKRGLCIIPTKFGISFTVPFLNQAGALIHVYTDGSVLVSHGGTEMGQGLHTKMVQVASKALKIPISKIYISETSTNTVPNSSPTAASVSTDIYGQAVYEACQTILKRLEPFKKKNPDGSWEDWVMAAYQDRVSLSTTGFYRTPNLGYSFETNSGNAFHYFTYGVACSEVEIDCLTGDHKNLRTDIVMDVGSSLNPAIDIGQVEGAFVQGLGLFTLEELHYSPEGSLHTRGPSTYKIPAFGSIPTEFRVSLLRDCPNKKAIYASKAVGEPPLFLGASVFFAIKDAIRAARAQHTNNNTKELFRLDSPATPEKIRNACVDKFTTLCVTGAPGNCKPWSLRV
// pIC50: -log10(molar conc.)

Cc1ccsc1-c1cn(-c2ccc(C(=O)O)cc2)cc1C#N 8.33

Query string: // pIC50 lookup, key: `N#Cc1nn(-c2ccc(C(=O)O)cc2)nc1-c1ccccc1`
Result string: 7.11

Query string: # pIC50 lookup, item `N#Cc1cn(-c2ccc(C(=O)O)cc2)cc1-c1ccccc1`
Result string: 8.31

Query string: Look up pIC50: `COc1ccc2c(c1)c(C#N)cn2-c1ccc(C(=O)O)cc1`
Result string: 7.84

Query string: Fill blank: measured pIC50 of the compound `COc1ccc2c(C#N)cn(-c3ccc(C(=O)O)cc3)c2c1` is ____.
Result string: 7.02

###

molecular target: xanthine oxidase (from buttermilk) (Bos taurus, UniProt P80457)
Mark label 1 only for IC50 values smaller than 5 nM; exact matches and larger values are label 0.

Compound	Label Class
N#Cc1cn(-c2ccc(C(=O)O)cc2)nc1-c1ccccc1Cl [XO-TT524]	label 0
Cc1c(-c2ccccc2)c(C#N)cn1-c1ccc(C(=O)O)cc1 [XO-B440]	label 0

Would you kindly look at the next entry?
Query string: Does the reported IC50 of N#Cc1cn(-c2ccc(C(=O)O)cc2)nc1-c1ccc(F)cc1 [XO-TT572] stay below 5 nM?
Result string: label 1

###

Target: HEK293 cells forced to express URAT1 (Homo sapiens)
Construct: host or cells: HEK293
Sequence (Q96S37 1-553): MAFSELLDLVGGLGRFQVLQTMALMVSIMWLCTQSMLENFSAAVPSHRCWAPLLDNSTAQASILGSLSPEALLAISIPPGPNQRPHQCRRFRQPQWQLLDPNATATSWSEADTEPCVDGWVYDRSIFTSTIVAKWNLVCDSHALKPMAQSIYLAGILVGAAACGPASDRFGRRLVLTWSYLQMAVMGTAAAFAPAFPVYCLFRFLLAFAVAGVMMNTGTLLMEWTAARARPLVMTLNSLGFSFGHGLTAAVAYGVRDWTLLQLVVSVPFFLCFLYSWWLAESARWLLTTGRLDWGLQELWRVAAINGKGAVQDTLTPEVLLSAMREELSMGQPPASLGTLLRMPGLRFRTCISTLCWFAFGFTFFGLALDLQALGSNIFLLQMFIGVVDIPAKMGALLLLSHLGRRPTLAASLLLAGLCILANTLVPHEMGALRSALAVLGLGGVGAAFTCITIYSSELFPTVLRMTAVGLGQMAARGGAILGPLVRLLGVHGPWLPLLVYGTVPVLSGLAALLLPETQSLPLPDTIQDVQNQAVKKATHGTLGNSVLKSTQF
Assay: URAT1 inhibitory effect, [8-14C] uric acid uptake
Type: cell-based
Details: test compound 100 μmol/L, 20 μmol/L uric acid, 5 minutes uptake
Text: DMEM containing 10% FBS (supplemented with 0.05% geneticin, Nissui Pharmaceutical Co., Ltd.), HEK293 cells forced to express URAT1 (HCS (Human cell Systems), (Fuji Biomedix)), HBSS as washing buffer and HBSS substituted with Na-gluconate (NaCl in HBSS was substituted with Na-gluconate) were used for assay. [8-^14C] uric acid (moravek) was used as an uric acid reagent and added to assay buffer at 20 μmol/L as a final concentration. […]
Endpoint Name: inhibition at 100 µM (%)
# number only, unit % dropped from output

N#Cc1cn(-c2ccc(C(=O)O)cc2)c2ncccc12 92.3
Cc1ccc2c(c1)c(C#N)cn2-c1ccc(C(=O)O)cc1 92.3

Query string: Which measured inhibition at 100 µM value corresponds to `N#Cc1cn(-c2ccc(C(=O)O)cc2)c2ccc(Cl)cc12` ?
Result string: 93.8

Query string: Can you look up the measured inhibition at 100 µM of `N#Cc1cn(-c2ccc(C(=O)O)cc2)c2ccccc12` for me?
Result string: 92.1

Query string: Which inhibition at 100 µM reading was recorded for the compound `N#Cc1cnc2c(c1)c(C#N)cn2-c1ccc(C(=O)O)cc1` ?
Result string: 64.6

Where these numbers come from: patent US7947707B2
